pIC50 values for Cytochrome P450 3A4 (Homo sapiens, UniProt P08684) compiled from several publications are listed below.
pIC50: −log10 of the molar value.

Worked cases, answers included:
COc1cc2c(cc1OC)CN(CCc1ccc(-n3nnc(-c4cc(OC)c(OC)cc4NC(=O)c4ccc(-n5ccnc5)cc4)n3)cc1)CC2
6.29
O=C(N[C@@H](Cc1c[nH]c2ccc(O)cc12)c1cscn1)c1ccc2c(c1)nc(-c1ccoc1)n2C1CCCCC1
6.40
CNC1CCN(c2ccc(Cl)c(Cl)c2)c2ccccc21 (stereo not drawn)
< 4.60

Prompt: Which pIC50 is reported with Cytochrome P450 3A4 (Homo sapiens, UniProt P08684) for this entry: CC1(c2ccccc2)CCCN(C(=O)Nc2ccncc2)C1 (stereo not drawn) ?
Response: > 5.00

Prompt: Which pIC50 is reported with Cytochrome P450 3A4 (Homo sapiens, UniProt P08684) for this entry: `COc1cc2c(cc1-c1c(C)noc1C)ncc1[nH]c(=O)n(Cc3ccccn3)c12` ?
Response: 4.89

---

IC50 values for Cytochrome P450 3A4 (Homo sapiens, UniProt P08684) compiled from several publications are listed below.
assay-endpoint: IC50 (µM)

Worked cases, answers included:
CN(C)[C@H]1C[C@@H](c2nc(-c3ccc4ccc(-c5ccccc5)nc4c3)c3c(N)nccn32)C1
19
CS(=O)(=O)Nc1cccc(CC(=O)Nc2ccc(-c3c[nH]c4ncccc34)s2)c1
6

P. Nc1cc(CN2CCC(F)(C(=O)N3CCC(N4Cc5ccccc5Cc5ccccc54)CC3)CC2)ccn1
Q. C[C@H](C1=C(CCN(C)Cc2ncco2)Cc2ccccc21)c1cnccn1
Prompt: For the two items P and Q , which reports the higher IC50 value? Answer with the label corresponding to your selection.
Response: P
(P: 18 µM, Q: 4.84 µM)

---

IC50 values for Cytochrome P450 3A4 (Homo sapiens, UniProt P08684) compiled from several publications are listed below.
assay-endpoint: IC50 (µM)

Worked cases, answers included:
O=C(Nc1ccc(Oc2ccc(F)cc2)cc1)[C@@H]1C[C@@H](c2ccccc2)CN1C(=O)Cc1cnc[nH]1
0.301
Fc1ccc2sc3c(c2c1)CCN(Cc1cccnc1)C3
7.9
Cc1cc2c(F)c(Oc3ncnn4cc(OCCC5CCN(C)CC5)c(C)c34)ccc2[nH]1
0.7

a. CCN(CC(O)(CNC(=O)c1cnn(-c2ccc(F)cc2)c1N)C(F)(F)F)C(=O)c1ccccc1Cl (stereo in doubt; 13d)
b. Cc1cc(-c2cc(OC(F)(F)F)ccc2Cl)cc(C)c1OCCCC(=O)O
c. Cn1cc(-c2cc(C(O)(C(F)(F)F)C(F)(F)F)cnc2N2CCN(S(=O)(=O)c3ccc(N)nc3)CC2)cn1
d. C/C1=C\[C@H](O)C[C@@]2(C)O[C@@H]2CC(C)(C)/C=C/C1=O
Prompt: Parameters: sort_field (IC50), sort_dir (desc). I would appreciate it if you listed the labels in the requested order.
Response: d, c, b, a
(d: 62.5 µM, c: 27 µM, b: 3.28 µM, a: 2 µM)

I. Cn1cc(Nc2nccc(-c3ccc4c(c3)CCCC[C@H]4NC(=O)c3nc(C(C)(C)C)no3)n2)cn1
II. COc1ccccc1COCCCOc1ccc(N2C(=O)CNC[C@@H]2COc2ccc3c(c2)N(CCN(C)C(C)=O)CCC3)cc1
Prompt: For the two items I and II , which reports the higher IC50 value? Answer with the label corresponding to your selection.
Response: I
(I: 2.6 µM, II: 0.018 µM)

1. Cc1cc(C(N)=O)nn1-c1cccc(-c2cc(C(F)(F)F)ccc2C(F)(F)F)c1
2. CS(=O)(=O)c1ccc(F)cc1C(=O)N1CCC(N(C2CC2)S(=O)(=O)c2cccc(C(F)(F)F)c2)CC1
3. C[C@H](c1nc2ncccc2c(=O)n1-c1ccc(O)cc1)N(Cc1cccnc1)C(=O)Cc1ccc(OC(F)(F)F)cc1
4. CC(C)=C(c1ccncc1)c1ccc(-c2ccc(N)c(N)c2)cc1
Prompt: Parameters: sort_field (IC50), sort_dir (desc). I would appreciate it if you listed the labels in the requested order.
Response: 1, 2, 4, 3

a. Cc1cc(-c2ccc(F)cc2)cc2[nH]c(-c3c(N[C@H](CO)Cc4ccccc4)cc[nH]c3=O)nc12
b. Cc1cc(-c2n[nH]c3cc(NC(=O)N[C@H](C)c4ccccc4)ncc23)cc(C)n1
c. Cc1cccc(NC(=O)c2cc(Cl)cc(Oc3cncnc3)c2)n1
Prompt: Parameters: sort_field (IC50), sort_dir (desc). I would appreciate it if you listed the labels in the requested order.
Response: a, c, b
(a: 6.3 µM, c: 4.3 µM, b: 0.78 µM)
